- System: PIM2
- Conditions: Compound Concentration (nM):1000;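 note: KINOMEscan scanMAX binding as percent activity remaining versus control; lower means stronger binding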
Measured Parameter: Percent Control (%)
Give just the number in %; leave the unit off.

Illustrative cases are given below, each with its answer.
>>> result("Cc1cc(O)cc(C)c1/C=C/c1cncc(C(N)=O)c1 [GW435821X]")
100
>>> result("CN1CCN(C(=O)c2ccc(NC(=O)Nc3ccc(N(C)c4ccnc(Nc5ccc(CS(C)(=O)=O)cc5)n4)cc3)cc2)CC1.Cl [GW830263A]")
100
>>> result("O=C(Nc1n[nH]c2nc(-c3ccc(O)cc3)c(Br)cc12)C1CC1 [SB-725317]")
0.4

Lookup: Notebook: pull reported Percent Control for PIM2, entry COc1ccc(COc2ccc(Cc3cnc(N)nc3N)cc2OC)cc1 [GW632580X]
Found: 91

Lookup: Notebook: pull reported Percent Control for PIM2, entry NS(=O)(=O)c1ccc(N/N=C2\C(=O)Nc3ccc(C(=O)NCc4ccncc4)cc32)cc1 [GW300657X]
Found: 100

---

- System: LYN
- Conditions: Compound Concentration (nM):1000
Quick reference for Percent Control among some compounds
Write the numeric value and append its unit.

Illustrative cases are given below, each with its answer.
>>> result("CN(C)CCNC(=O)Nc1ccc(N(C)c2ccnc(Nc3ccc(CS(C)(=O)=O)cc3)n2)cc1.Cl [GW830900A]")
"100%"
>>> result("COc1cc2ncn(-c3cc(O[C@H](C)c4ccccc4Cl)c(C(N)=O)s3)c2cc1OC [GSK237701A]")
"81%"
>>> result("COc1ccccc1-c1cc(/C=C2\\C(=O)Nc3ncc(Br)cc32)cc(Br)c1O [GW442130X]")
"100%"

Lookup: Notebook: pull reported Percent Control for LYN, entry COc1cc(/C=N/Nc2ncnc3[nH]ncc23)ccc1O [GW578748X]
Found: 86%

---

- Test system: PCTK1
- Construct: gene CDK16
- Conditions: Compound Concentration (nM):1000
Measured Parameter: Percent Control (%)
Give just the number in %; leave the unit off.

>>> result("CN(C)c1cc2c(Nc3ccc4c(cnn4Cc4ccccc4)c3)ncnc2cn1 [GW282974X]")
87
>>> result("COc1cccc(-n2ncc3c(N/N=C/c4ccncc4)ncnc32)c1 [GW784752X]")
25
>>> result("COc1ccccc1-c1cc(/C=C2\\C(=O)Nc3ncc(Br)cc32)cc(Br)c1O [GW442130X]")
79
>>> result("C[C@@H](Oc1cc(-n2cnc3ccc(OC4CCN(C)CC4)cc32)sc1C(N)=O)c1ccccc1Cl [GSK579289A]")
94
>>> result("CC(C)COC(=O)c1ccc2c(c1)/C(=C/Nc1ccc(S(N)(=O)=O)cc1)C(=O)N2 [GW416981X]")
0.6

Lookup: Item under review: Cc1cc(O)cc(C)c1/C=C/c1cncc(C(N)=O)c1 [GW435821X] . Reported Percent Control?
Found: 100

Lookup: Item under review: C/C(Nc1ccc(S(N)(=O)=O)cc1)=C1/C(=O)Nc2ccccc21 [GW335962X] . Reported Percent Control?
Found: 23

Lookup: Item under review: COc1ccc2cc(-c3c(-c4ccncc4)nc(-c4ccc(S(C)(=O)=O)cc4C)n3C)ccc2c1 [SB-633825] . Reported Percent Control?
Found: 74

Lookup: Item under review: CCn1c(-c2nonc2N)nc2c(C#CC(C)(C)O)nc(OCCNC)cc21.Cl [GSK949675] . Reported Percent Control?
Found: 82

Lookup: Item under review: COc1cc(C=NNc2ncnc3c2cnn3-c2ccccc2)ccc1O [GW513184X] . Reported Percent Control?
Found: 29

---

- System: EPHB6
- Conditions: Compound Concentration (nM):1000
Quick reference for Percent Control among some compounds
Give just the number in %; leave the unit off.

Illustrative cases are given below, each with its answer.
>>> result("CN(C)c1cc2c(Nc3ccc4c(cnn4Cc4ccccc4)c3)ncnc2cn1 [GW282974X]")
24
>>> result("CCS(=O)(=O)c1ccc(OC)c(Nc2ncc(-c3cccc(OC)c3)o2)c1 [GW580509X]")
3.3

Lookup: Item under review: NS(=O)(=O)c1ccc(N/N=C2\C(=O)Nc3ccc(Cl)cc32)cc1 [GW280670X] . Reported Percent Control?
Found: 82

Lookup: Item under review: COc1ccc(COc2ccc(Cc3cnc(N)nc3N)cc2OC)cc1 [GW632580X] . Reported Percent Control?
Found: 100

---

- System: LYN
- Conditions: Compound Concentration (nM):1000
Measured Parameter: Percent Control (%)
Give just the number in %; leave the unit off.

Illustrative cases are given below, each with its answer.
>>> result("CCc1ccc(Oc2nccc(-c3c(-c4ccc(F)cc4)ncn3C3CCNCC3)n2)cc1")
100
>>> result("Nc1ncnc2occ(-c3ccc(NC(=O)Nc4cc(C(F)(F)F)ccc4F)cc3)c12 [GW770249X]")
29
>>> result("NS(=O)(=O)c1ccc(N/N=C2\\C(=O)Nc3ccc(C(=O)NCCc4c[nH]cn4)cc32)cc1 [GW300660X]")
100

Lookup: Item under review: COc1cc(N2CCN(C(C)C)CC2)ccc1Nc1nc(Nc2ccc(F)cc2C(=O)NC[C@@H](O)CO)c2cc[nH]c2n1 [GSK1392956A] . Reported Percent Control?
Found: 92

Lookup: Item under review: CC1=C(C(=O)Nc2ccc3[nH]ncc3c2)C(c2ccc(Cl)c(Cl)c2)CC(=O)N1 (centres unmarked) [GSK299115A] . Reported Percent Control?
Found: 100

Lookup: Item under review: COc1cccc(-n2ncc3c(N/N=C/c4ccncc4)ncnc32)c1 [GW784752X] . Reported Percent Control?
Found: 58

Lookup: Item under review: COC(=O)Nc1nc2ccc(Oc3ccc(NC(=O)Nc4cc(C(F)(F)F)ccc4F)cc3)cc2s1.Cl [GW693917A] . Reported Percent Control?
Found: 19

Lookup: Item under review: `CCn1c(-c2nonc2N)nc2c(C#CC(C)(C)O)nc(OCCNC)cc21.Cl` . Reported Percent Control?
Found: 100

---

- Test system: GCN2(Kin.Dom.2,S808G)
- Construct: gene EIF2AK4
- Conditions: Compound Concentration (nM):1000
Quick reference for Percent Control among some compounds
Give just the number in %; leave the unit off.

>>> result("NS(=O)(=O)c1ccc(N/N=C2\\C(=O)Nc3ccc(C(=O)NCCc4c[nH]cn4)cc32)cc1 [GW300660X]")
100
>>> result("COc1cc2ncnc(Nc3ccc4c(cnn4Cc4ccccc4)c3)c2cc1OC.Cl [GW282449A]")
100
>>> result("CCS(=O)(=O)c1ccc(OC)c(Nc2ncc(-c3cccc(OC)c3)o2)c1 [GW580509X]")
82
>>> result("COc1cc(C=NNc2ncnc3c2cnn3-c2ccccc2)ccc1O [GW513184X]")
49
>>> result("COc1ccc2c(-c3ccnc(Nc4cccc(OC(F)(F)F)c4)n3)cnn2n1 [GW810372X]")
85
>>> result("COc1ccc2cc(-c3c(-c4ccncc4)nc(-c4ccc(S(C)(=O)=O)cc4C)n3C)ccc2c1")
100
>>> result("COc1cc(N2CCN(C(C)C)CC2)ccc1Nc1nc(Nc2ccc(F)cc2C(=O)NC[C@@H](O)CO)c2cc[nH]c2n1 [GSK1392956A]")
48
>>> result("CCS(=O)(=O)c1ccc(OC)c(Nc2ncc(-c3cccc(F)c3)o2)c1 [GW621970X]")
71
>>> result("COc1ccc(COc2ccc(Cc3cnc(N)nc3N)cc2OC)cc1 [GW632580X]")
100
>>> result("Cl.O=C(Nc1ccc(Oc2ccc3[nH]c(NC(=O)c4ccco4)nc3c2)cc1)Nc1cc(C(F)(F)F)ccc1F [GW683134A]")
90

Lookup: Item under review: COc1cccc(-c2c[nH]c3c(N/N=C/c4ccncc4)ncnc23)c1 [GW814408X] . Reported Percent Control?
Found: 8.3

Lookup: Item under review: CN1CCN(C(=O)c2ccc(NC(=O)Nc3ccc(N(C)c4ccnc(Nc5ccc(CS(C)(=O)=O)cc5)n4)cc3)cc2)CC1.Cl [GW830263A] . Reported Percent Control?
Found: 100

Lookup: Item under review: CC(C)COC(=O)c1ccc2c(c1)/C(=C/Nc1ccc(S(N)(=O)=O)cc1)C(=O)N2 [GW416981X] . Reported Percent Control?
Found: 96

Lookup: Item under review: COc1ccccc1-c1cc(/C=C2\C(=O)Nc3ncc(Br)cc32)cc(Br)c1O [GW442130X] . Reported Percent Control?
Found: 79

Lookup: Item under review: CC1=C(C(=O)Nc2ccc3[nH]ncc3c2)C(c2ccc(Cl)c(Cl)c2)CC(=O)N1 (centres unmarked) [GSK299115A] . Reported Percent Control?
Found: 100

Lookup: Item under review: COc1cc2ncn(-c3cc(O[C@H](C)c4ccccc4Cl)c(C(N)=O)s3)c2cc1OC [GSK237701A] . Reported Percent Control?
Found: 31

Lookup: Item under review: `COc1cc(C)c(N(C)C(=O)CN(C)C)cc1Nc1nc(Nc2cccc(F)c2C(N)=O)c2cc[nH]c2n1` . Reported Percent Control?
Found: 100

Lookup: Item under review: `NS(=O)(=O)c1ccc(N/N=C2\C(=O)Nc3ccc(-c4cnco4)cc32)cc1` . Reported Percent Control?
Found: 89

Lookup: Item under review: NS(=O)(=O)c1ccc(N/N=C2\C(=O)Nc3ccc(C(=O)NCc4ccncc4)cc32)cc1 [GW300657X] . Reported Percent Control?
Found: 100

Lookup: Item under review: Cl.O=C(O[C@H]1CN[C@H](C#Cc2cc3ncnc(Nc4ccc5c(cnn5Cc5ccccc5)c4)c3s2)C1)N1CCOCC1 [GSK200398A] . Reported Percent Control?
Found: 44

Ref: paper PMC7826789
